The entries below come with measured GI50 values attached.
Test system: UO-31
Assay: NCI tumour cell line growth inhibition, 48 h
Calls of active or inactive are those of the source. No stated cut-off is given here; in the data, active = GI50 up to about 1.1 µM and inactive = higher.

Record request: GI50 value, item CC(=O)OCC(OC(C)=O)C(OC(C)=O)C(/C=N\Nc1nc2ccccc2c(=O)[nH]1)=N\Nc1nc2ccccc2c(=O)[nH]1 (stereo not given)
> 100 µM (inactive)

----------
Test system: SK-OV-3
Assay: NCI tumour cell line growth inhibition, 48 h
Active and inactive are the calls of the source. Rule as the data show it: active = GI50 up to about 1.1 µM and inactive = higher.
quantity measured: GI50

Value wanted: GI50 (SK-OV-3) of entry C[C@H](CC[C@@H](O)C(C)(C)O)[C@H]1CC[C@@]2(C)[C@@H]3CC=C4[C@@H](CC[C@H](O)C4(C)C)[C@]3(C)C(=O)C[C@]12C [BRYODULCOSIGENIN]
42.5 µM (inactive)

Also COc1cc2ccc3c4cc(OC)c(OC(C)C)cc4cnc3c2cc1OC ?
> 100 µM (inactive)

Also CCOc1ccc(N/C(=C(/C(Cl)=C(/Cl)NCCO)[N+](=O)[O-])n2nnc3ccccc32)cc1 ?
12.8 µM (inactive)

Further cases:
Value wanted: GI50 (SK-OV-3) of entry CCC(=O)Nc1ccc(N2C(=O)/C(=C/c3ccc(O)c(OC)c3)N=C2c2ccccc2)cc1
31 µM (inactive)
